pIC50: −log10 of the molar value.
System: HPK1 (Homo sapiens (Human)) | Read-out: pIC50 | Origin: multiple publications

compound	tgt	pIC50
CNC1CCN(c2cccc(Nc3cnc(-c4ccnc5c4ccn5C)c4c3C(=O)NC4)n2)CC1	HPK1 (Homo sapiens (Human))	6.00 to 7.00
Cc1cccc(F)c1-n1nc2c(-c3cnn(C)c3)n[nH]c2cc1=O	HPK1 (Homo sapiens (Human))	5.70 to 6.30
C[C@@H]1CN(c2c(NC(=O)c3ccc(=O)n(-c4c(F)cccc4F)n3)ccc3c2nc(C2(C(F)(F)F)CC2)n3C)C[C@@H]1N	HPK1 (Homo sapiens (Human))	> 7.00
CCOc1csc2[nH]c(=O)c(-c3nc4ccc(N5CCN(C)CC5)cc4[nH]3)c(N)c12	HPK1 (Homo sapiens (Human))	6.30 to 7.30
CNC1(c2ccc(F)c(-c3cc(Nc4ccc(N5CCC(O)CC5)cn4)c4c(=O)[nH]ccc4n3)c2)CC1	HPK1 (Homo sapiens (Human))	6.00 to 7.00
CC(C)n1nnc2c(N3C[C@H](N)C4(CC4)C3)c(NC(=O)c3ccc(=O)n(-c4c(F)cccc4F)n3)ccc21	HPK1 (Homo sapiens (Human))	> 7.00
Cc1ccn2c(-c3ccc(Nc4ccc(N5CCO[C@H](C(C)(C)O)C5)cn4)c4c3CNC4=O)cnc2n1	HPK1 (Homo sapiens (Human))	> 7.00
CN1CCN2c3ccc(-c4n[nH]c5cc(C#N)c(-c6ccc(-c7ccccn7)cc6F)cc45)cc3OCC2C1 (stereo not drawn)	HPK1 (Homo sapiens (Human))	7.00 to 8.00

pIC50 of COc1nc2c(cc1Nc1ncc3cccc(-c4ccccc4SC)c3n1)CN(C)CC2 , assay on HPK1 (Homo sapiens (Human)), is > 10.00

Param item: CN(C[C@H]1CN(c2ccc(Nc3ccc(-c4cnc5cc(F)ccn45)c4c3C(=O)NC4)nc2)CCO1)C1CC1 ; param system: HPK1 (Homo sapiens (Human)); output pIC50: > 7.00
